Sequence of the target: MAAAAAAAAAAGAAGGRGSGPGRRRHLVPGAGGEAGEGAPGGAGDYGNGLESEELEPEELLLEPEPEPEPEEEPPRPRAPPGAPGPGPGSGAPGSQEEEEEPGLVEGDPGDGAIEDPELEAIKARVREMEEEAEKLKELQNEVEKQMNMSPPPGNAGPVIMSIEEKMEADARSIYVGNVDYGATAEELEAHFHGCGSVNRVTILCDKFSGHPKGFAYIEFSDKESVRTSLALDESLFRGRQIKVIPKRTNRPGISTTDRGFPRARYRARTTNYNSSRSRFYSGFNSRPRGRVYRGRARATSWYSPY
pIC50: −log10 of the molar value.
outcome measure: pIC50

[[record]]
compound = "CC(C)/N=c1\\cc2n(-c3ccc(Cl)cc3)c3ccccc3nc-2cc1Nc1ccc(Cl)cc1"
value_measured = 4.30

[[record]]
compound = "CCCCN1CCCC1CNC(=O)c1cc(C#N)c2ccccc2c1OC (centres unmarked) [Nafadotride]"
value_measured = 4.17

[[record]]
compound = "CC(C)(C)NC(=O)[C@@H]1CN(Cc2cccnc2)CCN1C[C@@H](O)C[C@@H](Cc1ccccc1)C(=O)N[C@H]1c2ccccc2C[C@H]1O"
value_measured = 4.54


P: OCCOCCN1CCN(C(c2ccccc2)c2ccc(Cl)cc2)CC1 (centres unmarked) [Hydroxyzine]
Q: CC(C(=O)O)c1ccc(-c2ccccc2)c(F)c1 (centres unmarked)
Determine, for P and Q , which has the greater value of pIC50. Respond with the label that goes with your answer.
Q

---

- system tested: MSUT2 ZF (Homo sapiens, UniProt Q6PJT7)
- Construct: Targeted construct consisted of the c-terminal end (dark blue and amino acids 601-736) of MSUT2; made in house; host or cells: E. coli BL21 (DE3)
- Sequence (Q6PJT7 601-736): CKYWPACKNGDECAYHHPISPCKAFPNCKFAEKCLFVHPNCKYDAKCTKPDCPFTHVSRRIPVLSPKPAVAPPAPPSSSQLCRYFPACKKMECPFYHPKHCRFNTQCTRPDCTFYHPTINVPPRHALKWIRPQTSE
- protocol text: Fluorescence polarization assay of FAM-poly(A) RNA:MSUT2 ZF binding
- conditions: saturation assay, FAM-RNA constant at 10 nM; read-out: affinity for FAM-RNA:MSUT2 ZF interaction
{FAM} = fluorescein amidite label
outcome measure: pKd
A value of pKd is the negative decimal logarithm of a concentration given in moles per litre.

Using the record for FAM-RNA: fluorescent FAM (fluorescein amidite)-labeled poly(A)15 RNA probe (SEQ ID NO: 3) (AAAAAAAAAAAAAAA; RNA, 5' {FAM}, backbone not given here) , state its measured pKd.
6.09

---

- system tested: MSUT2 ZF (Homo sapiens)
- Construct: Targeted construct consisted of the c-terminal end (dark blue and amino acids 601-736) of MSUT2; made in house; host or cells: E. coli BL21 (DE3)
- Sequence (Q6PJT7 601-736): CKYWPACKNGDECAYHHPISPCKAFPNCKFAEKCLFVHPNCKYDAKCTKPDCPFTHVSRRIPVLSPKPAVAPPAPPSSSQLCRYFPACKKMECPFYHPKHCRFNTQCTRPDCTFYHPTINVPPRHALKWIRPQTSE
- protocol text: Fluorescence polarization assay of FAM-poly(A) RNA:MSUT2 ZF binding
- conditions: calculated by Cheng Prusof equation Ki=(IC50)/[(L/Kd)+1]; FP dose response; read-out: Ki (nm) for MSUT2
outcome measure: Ki (nM)

Solved entries:
[[record]]
compound = "CC(C)(C)NC(=O)[C@@H]1C[C@@H]2CCCC[C@@H]2CN1C[C@@H](O)[C@H](Cc1ccccc1)NC(=O)[C@H](CC(N)=O)NC(=O)c1ccc2ccccc2n1"
value_unit = "nM"
value_measured = 188

[[record]]
compound = "CN1C2CCCC1CC(NC(=O)c1nn(C)c3ccccc13)C2 (stereo not drawn)"
value_unit = "nM"
value_measured = 534

[[record]]
compound = "CC(C)/N=c1\\cc2n(-c3ccc(Cl)cc3)c3ccccc3nc-2cc1Nc1ccc(Cl)cc1"
value_unit = "nM"
value_measured = 978


P: OCCOCCN1CCN(C(c2ccccc2)c2ccc(Cl)cc2)CC1 (stereo not drawn) [Hydroxyzine]
Q: CC(C)(C)NC(=O)[C@@H]1CN(Cc2cccnc2)CCN1C[C@@H](O)C[C@@H](Cc1ccccc1)C(=O)N[C@H]1c2ccccc2C[C@H]1O
Field: lower recorded Ki (choose P or Q ) Refer to your chosen entry by its label in the reply.
P
(P: 573 nM, Q: 916 nM)

---

- system tested: MSUT2 ZF (Homo sapiens, UniProt Q6PJT7)
- Construct: Targeted construct consisted of the c-terminal end (dark blue and amino acids 601-736) of MSUT2; made in house; host or cells: E. coli BL21 (DE3)
- protocol text: Fluorescence polarization assay of FAM-poly(A) RNA:MSUT2 ZF binding
- conditions: calculated by Cheng Prusof equation Ki=(IC50)/[(L/Kd)+1]; FP dose response
outcome measure: Ki (nm) for MSUT2

[[record]]
smiles_representation = "OCCN(CCO)c1nc(N2CCCCC2)c2nc(N(CCO)CCO)nc(N3CCCCC3)c2n1"
value_measured = "failed DR"

[[record]]
smiles_representation = "C[C@H]1CCC[C@H](O)CCCCCc2cc(O)cc(O)c2C(=O)O1"
value_measured = "failed DR"

[[record]]
smiles_representation = "O=C(N[C@H](CO)[C@H](O)c1ccc([N+](=O)[O-])cc1)C(Cl)Cl"
value_measured = "failed DR"

